Values were extracted from ChEMBL document CHEMBL6087462.

Test system: Staphylococcus aureus
Assay: Antimicrobial activity against Staphylococcus aureus ATCC 29213 assessed as reduction in microbial growth by CLSI based broth microdilution method
Assay type: functional
Threshold 2000 µg/mL. MIC below it: label 1. MIC at it or above: label 0.

Query: Record "Cc1ccc(C(C)C)cc1O" : is its MIC strictly below 2000 µg/mL?
Response: label 1

Query: For CC(C)=CCCC(C)CC=O (configuration not stated) , is the recorded MIC below the cut-off of 2000 µg/mL?
Response: label 0

Query: Say whether its MIC is strictly beneath 2000 µg/mL. Entry: "CC(C)c1ccc(C=O)cc1"
Response: label 0

Query: Find out if reported MIC for "Cc1ccc(C(C)C)c(O)c1" is less than 2000 µg/mL
Response: label 1

Query: For this compound, is MIC lower than 2000 µg/mL? "CC[C@H](C)[C@H](NC(=O)[C@@H](NC(=O)[C@@H](CCCNC(=N)N)NC(=O)[C@H](C)NC(=O)[C@H](C)NC(=O)[C@@H](N)Cc1cccc2ccccc12)[C@@H](C)CC)C(=O)N[C@@H](CC(C)C)C(=O)N[C@H](CCCNC(=N)N)C(=O)N[C@@H](Cc1c[nH]c2ccccc12)C(=O)N[C@H](CCCNC(=N)N)C(=O)N[C@@H](Cc1ccccc1)C(=O)N[C@@H](CCCNC(=N)N)C(=O)O"
Response: label 1

Query: Would you kindly verify if MIC of "CC(C)=CCC/C(C)=C/C=O" is strictly less than 2000 µg/mL?
Response: label 1
